Can you tell me composite z-score for the items I'm about to list?
- Measurement target: Streptavidin (Streptomyces avidinii) (UniProt P22629)
- Sequence (P22629 whole entry, looked up): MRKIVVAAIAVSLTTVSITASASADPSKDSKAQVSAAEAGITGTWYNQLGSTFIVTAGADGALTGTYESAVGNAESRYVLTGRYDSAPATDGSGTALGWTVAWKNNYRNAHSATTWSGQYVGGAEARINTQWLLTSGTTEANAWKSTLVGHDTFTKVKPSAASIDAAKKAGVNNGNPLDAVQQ
- Assay: streptavidin binders on small-molecule microarray, primary screen, artefact control for SMM compound annotation, biophysical, 635/667 nm fluorescence (AID 1147);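 also: signal reflects streptavidin binding to arrayed compounds as a control protein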
- Test settings: streptavidin binding, higher = more signal
Respond using a number only.

The molecule `CCOC(=O)C1=CC[C@@H](c2ccc([N+](=O)[O-])cc2)N(S(=O)(=O)c2ccc(C)cc2)[C@H]1c1ccccc1` showed composite z-score equal to 1.57

The molecule `CC(C)C(=C=CC[C@@H](O)c1ccccc1OCCO)C[C@@H](O)COCc1ccccc1` showed composite z-score equal to 0.235

The molecule `C=CCNC(=O)[C@@H]1[C@H]2C(=O)O[C@H](c3ccccc3)[C@H](c3ccccc3)N2[C@H](c2ccccc2OCCO)[C@@]12C(=O)N(C(=O)OCCOC)c1ccc(C#CC3=CCCCC3)cc12` showed composite z-score equal to 0.497

The molecule `COCCOC(=O)N1C(=O)[C@@]2(c3cc(C#CC4(O)CCCCCC4)ccc31)[C@H](C(N)=O)[C@H]1C(=O)O[C@H](c3ccccc3)[C@H](c3ccccc3)N1[C@@H]2c1ccccc1OCCO` showed composite z-score equal to 0.143

The molecule `[N-]=[N+]=NCc1ccccc1C[C@@]1(C(N)=O)N=C(c2ccc(OCCCO)cc2)O[C@@H]1c1ccccc1CN=[N+]=[N-]` showed composite z-score equal to 1.13

The molecule O=C1NC(=O)C2C1C=CC(C(O)c1ccc3c(c1)OCO3)N2Nc1ccccn1 (stereo not drawn) showed composite z-score equal to 0.501

The molecule COc1ccc(C(O)C2C=CC3C(=O)N(C)C(=O)C3N2N2CCCCC2)cc1 (stereo not drawn) showed composite z-score equal to 1.54

The molecule CC(CO)N1C(=O)[C@@H]2C3C(=O)OCCC/C=C\[C@H]3OC23C=CCN(Cn2nnc4ccccc42)C(=O)[C@@H]13 (stereo partly drawn) showed composite z-score equal to -0.521

The molecule `COc1ccc(CCNC(=O)[C@@]2(Sc3ccc(C)cc3)CC(=O)N(Cc3cc(C(F)(F)F)cc(C(F)(F)F)c3)[C@@H]2c2ccc(CO)cc2I)cc1` showed composite z-score equal to 0.762

The molecule `COC(=O)[C@@]1(Cc2ccc(OC)cc2)[C@H]2c3cc(C(=O)N(C)C)n(Cc4ccccc4)c3C[C@H]2CN1C(=O)c1ccccc1` showed composite z-score equal to 0.707

The molecule `[N-]=[N+]=Nc1ccccc1C[C@]1(C(=O)NCc2ccccc2)N=C(c2ccc(OCCCO)cc2)O[C@H]1c1ccccc1` showed composite z-score equal to 1.44

The molecule `COCCOC(=O)N1C(=O)[C@@]2(c3cc(C#Cc4ccc(OC)cc4)ccc31)[C@H](C(=O)N1CCN(c3ncccn3)CC1)[C@H]1C(=O)O[C@H](c3ccccc3)[C@H](c3ccccc3)N1[C@@H]2c1ccccc1OCCO` showed composite z-score equal to 0.103

The molecule `COc1cc2c(cc1OC)CN(C(=O)[C@@H]1[C@H]3C(=O)O[C@H](c4ccccc4)[C@H](c4ccccc4)N3[C@H](c3ccccc3OCCO)[C@@]13C(=O)Nc1ccc(C#CC4(O)CCCCCC4)cc13)CC2` showed composite z-score equal to 0.445

Values compiled from PubChem BioAssay.
